Assay system Beta-lactamase (Escherichia coli K-12); read-out recorded as pIC50.
Lab note — pIC50 values are minus log10 of concentrations in M.

Solved cases below.
O=C(O)C1=CS[C@@H]2/C(=C\c3cnc4n3CCOC4)C(=O)N12 8.30
O=C(O)C1=CS[C@@H]2/C(=C\c3cnc4n3CCNC4)C(=O)N12 8.22
O=C(O)C1=CS[C@@H]2/C(=C\c3cc4n(n3)CCC4)C(=O)N12 8.70

Query molecule follows.
Ask | Please indicate recorded pIC50 of O=C(O)C1=CS[C@@H]2/C(=C\c3cn4c5c(sc4n3)CCC5)C(=O)N12 measured with Beta-lactamase (Escherichia coli K-12).
Reply | 8.70

Each recorded value in this set is attributed to ChEMBL document CHEMBL1149192.
